# Tested on: MS2 coat protein
# experiment_notes: apparent KD of MS2 coat protein; designed switch direction (-1 OFF switch, 1 ON switch): -1; higher = weaker reporter binding
# recorded_conditions: Eterna round: R95; input ligand: FMN 200 uM
measured_quantity: apparent KD of MS2 coat protein (nM)
Lab book: enter the figure in nM, no units written.

Completed entries (count: 10):
- sequence_text: "AAAAAACAAGGAUAUACAAAAAAAAAAAGUGAAAAAAAACCACAUGAGGAUCACCCAUGUAGAAGGUGUAAAAA [JR_Exclusion2_Sub002] (puzzle: Exclusion 2)"
  recorded_value: 21.9
- sequence_text: "GAGGGACAUGAGGAUCACCCAUGUGAGGAUAUGUGAGAAGGAUUGGAGAGAAAAGGAAACAGAAGGCGCGGGAG [JR_Exclu1_Sub086] (puzzle: Exclusion 1)"
  recorded_value: 59.5
- sequence_text: "CGCGACUCAGGAUAUACAUGAGGAUCACCCAUGUGGAACGACUGGGUCGAUAAAAGGUGUAGAAGGGAGGAAAA [Invebies] (puzzle: Exclusion 3)"
  recorded_value: 15.4
- sequence_text: "UUAUAUAAUGUGAGGAUAUGCUGGUCGAUAGAUCAGCAGAAGGCACAUGAGGAUCACCCAUGUAGUAAAUUUUA [Mat - Exclusion 4 - JL Mod - D13] (puzzle: Brourd's mod of Exclusion 4)"
  recorded_value: 25.5
- sequence_text: "AGAAAUGCCCAUGGCCGCAAGCUUUCUGCUUGUCUUACCACAUGAGGAUCACCCAUGUGACAUGGGCUCCUUAUAAU [Soralaer] (puzzle: Sensor v3, turn-off variant 2)"
  recorded_value: 14.4
- sequence_text: "GAGUGACAUGAGGAUCACCCAUGUGAGGAUAUGCGACGGACCAAAUUAACAAUAGAAGGCAGAAGGCGCAUAAA [Exclusion 1 V10] (puzzle: Exclusion 1)"
  recorded_value: 26.9
- sequence_text: "UUACCAUGCCGCCUAAUAGCUUUUUGCUCGUCUUAUAUUACAUGAGGAUCACCCAUGUAAAACAUGUGGCGUGACCU [JL ViennaUCT Maridi mod 1] (puzzle: Sensor v3, turn-off variant 2)"
  recorded_value: 79.8
- sequence_text: "UAUAAAACAUAGGAUAUCGAAUAUAUCAUUUAACGAGAAGGAUGAACAUGAGGAUCACCCAUGUGGUAUCAUGG [Mat - Exclusion 6 - JL Mod - D8] (puzzle: Exclusion 6)"
  recorded_value: 286
- sequence_text: "GAAGAAGAGAGAAUAGAAAACAUGAGGAUCACCCAUGUGAGAAGAUGAGGGUGUAAUAGGCUUUUUGCUCGUCUUAU (puzzle: Sensor v3, turn-off variant 1)"
  recorded_value: 42.7
- sequence_text: "UUUAAUUUUUUUUUUUUACAAGCUUUUUGCUCGUCUUAUACAUGAGGAUCACCCAUGUGAAUGGGAGAUAAAUUAUC [JMF 18] (puzzle: Sensor v3, turn-off variant 2)"
  recorded_value: 356

In: Form field: reported apparent KD of MS2 coat protein of AAGAAGCAAGGAUAUACAGAGGAGAGGAAAGCAAGAGGAGGACAUGAGGAUCACCCAUGUAGAAGGUGCAGAGA [JR_Exclu2_Sub019] (puzzle: Exclusion 2)
Out: 67.4

In: Form field: reported apparent KD of MS2 coat protein of AGUAUGCGUGUCAGGAUAUCAAUGGCUCUACCCAAUGAGAAGGGACAUGAGGAUCACCCAUGUAUGAGCCUAAA [Zatelaveus] (puzzle: Brourd's mod of Exclusion 4)
Out: 15.9

In: Form field: reported apparent KD of MS2 coat protein of GGAAGUAGAAACCGAUCCUACAUGAGGAUCACCCAUGUAGCAAGACGUGCACGCGAAGCUCGUCAGACUACCAGAAU [salish99_TOv1_r3_010] (puzzle: Sensor v3, turn-off variant 1)
Out: 341

In: Form field: reported apparent KD of MS2 coat protein of AAAAUGCAAGGAUAUACAUAGAUCCGACCUACUUAAAACAAACAUGAGGAUCACCCAUGUAGAAGGUGCCAAAA [Raxerebiti] (puzzle: Exclusion 2)
Out: 44.9

In: Form field: reported apparent KD of MS2 coat protein of AGUACUAUGCGAGCUGACUUGCGUAGUGCAGCAAGUGAAACAUGAGGAUCACCCAUGUCCUCAUUUGCUCGUCUUAU [Mat - Sensor v3 - Turn-off var 2 - D1] (puzzle: Sensor v3, turn-off variant 2)
Out: 35.3

In: Form field: reported apparent KD of MS2 coat protein of AAAACGGCAGGAUAUCGGAACAAUGACAUGAGGAUCACCCAUGUGAUCGUUUCACUUGGCCGAGAAGGGCCAAAAU [Xeinbelele] (puzzle: Exclusion 5)
Out: 54.6

In: Form field: reported apparent KD of MS2 coat protein of AAGAAACAUGAGGAUCACCCAUGUGAGGAUAUGAUGAAGAAAAGAAAAGAAAGAAGAAUCAGAAGGCACAAAGG [salish99-ex1_r3_043] (puzzle: Exclusion 1)
Out: 83.6
